measuredTarget: P2X7 receptor (Homo sapiens)
Construct: host or cells: THP-1 cells differentiated with LPS and IFN-γ
Sequence (Q99572 whole entry): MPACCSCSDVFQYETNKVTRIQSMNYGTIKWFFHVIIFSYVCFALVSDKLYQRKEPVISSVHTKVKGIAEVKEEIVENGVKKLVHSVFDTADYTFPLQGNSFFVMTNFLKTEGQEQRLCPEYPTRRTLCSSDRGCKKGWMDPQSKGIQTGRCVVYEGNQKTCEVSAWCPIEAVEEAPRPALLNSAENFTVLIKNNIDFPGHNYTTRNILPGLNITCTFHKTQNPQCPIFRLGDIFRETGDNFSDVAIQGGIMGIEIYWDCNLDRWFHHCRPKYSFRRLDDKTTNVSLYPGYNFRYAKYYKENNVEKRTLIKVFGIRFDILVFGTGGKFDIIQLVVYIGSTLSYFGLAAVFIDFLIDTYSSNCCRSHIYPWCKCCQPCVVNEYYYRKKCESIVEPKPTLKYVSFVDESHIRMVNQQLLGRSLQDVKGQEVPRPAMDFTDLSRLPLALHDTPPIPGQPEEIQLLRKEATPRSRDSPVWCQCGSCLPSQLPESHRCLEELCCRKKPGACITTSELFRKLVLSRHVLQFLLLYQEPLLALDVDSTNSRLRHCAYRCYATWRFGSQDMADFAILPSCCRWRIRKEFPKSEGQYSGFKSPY
measurementProtocol: Alternate method for IL-1β release assay (differentiated THP-1 cells, BzATP-stimulated, ELISA)
Format: cell-based
experimentalParameters: P2X7; 0.3 μM compound (asterisk symbols); read-out: IL-1β % inhib @ 0.3 μM
inhibition at 0.3 µM listing for selected molecules.

Here's what some known entries look like.
molecule | measuredTarget | inhibition at 0.3 µM
O=S(=O)(c1c(Cl)cccc1Cl)N1CCc2c(ncnc2NCC23CC4CC(CC(C4)C2)C3)C1 | P2X7 receptor (Homo sapiens) | > 75%
COc1ccc(S(=O)(=O)N2CCc3c(ncnc3NCC34CC5CC(CC(C5)C3)C4)C2)cc1OC | P2X7 receptor (Homo sapiens) | 25 to 50%
O=S(=O)(Cc1ccccc1)N1CCc2c(ncnc2NCC23CC4CC(CC(C4)C2)C3)C1 | P2X7 receptor (Homo sapiens) | > 75%

# inhibition at 0.3 µM of COc1ccc(Oc2ccc(S(=O)(=O)N3CCc4c(ncnc4NCC45CC6CC(CC(C6)C4)C5)C3)cc2)cc1 = 0 to 25%

# inhibition at 0.3 µM of O=S(=O)(c1ccc(F)cc1Cl)N1CCc2c(ncnc2NCC23CC4CC(CC(C4)C2)C3)C1 = 0 to 25%

# inhibition at 0.3 µM of O=S(=O)(c1cc(F)ccc1F)N1CCc2c(ncnc2NCC23CC4CC(CC(C4)C2)C3)C1 = 25 to 50%

# inhibition at 0.3 µM of O=C(Cc1ccc(Cl)cc1)N1CCc2c(ncnc2NCC23CC4CC(CC(C4)C2)C3)C1 = 25 to 50%

# inhibition at 0.3 µM of O=S(=O)(c1ccc(OC(F)(F)F)cc1)N1CCc2c(ncnc2NCC23CC4CC(CC(C4)C2)C3)C1 = 0 to 25%

# inhibition at 0.3 µM of CCC(CC)CN1CCc2c(ncnc2NCC23CC4CC(CC(C4)C2)C3)C1 = > 75%

# inhibition at 0.3 µM of Cc1cc(C)cc(S(=O)(=O)N2CCc3c(ncnc3NCC34CC5CC(CC(C5)C3)C4)C2)c1 = 0 to 25%

# inhibition at 0.3 µM of Cc1c(S(=O)(=O)N2CCc3c(ncnc3NCC34CC5CC(CC(C5)C3)C4)C2)cnn1-c1ccccc1 = 50 to 75%

# inhibition at 0.3 µM of COc1ccc(C)cc1S(=O)(=O)N1CCc2c(ncnc2NCC23CC4CC(CC(C4)C2)C3)C1 = 25 to 50%

# inhibition at 0.3 µM of CC1(C)C2CC=C(CN3CCc4c(ncnc4NCC45CC6CC(CC(C6)C4)C5)C3)C1C2 (stereo not shown) = > 75%

# inhibition at 0.3 µM of c1ccc(Oc2cccc(CN3CCc4c(ncnc4NCC45CC6CC(CC(C6)C4)C5)C3)c2)cc1 = 25 to 50%

# inhibition at 0.3 µM of COc1ccc(CN2CCc3c(ncnc3NCC34CC5CC(CC(C5)C3)C4)C2)cc1OC = 0 to 25%

# inhibition at 0.3 µM of c1ccc(CCCN2CCc3c(ncnc3NCC34CC5CC(CC(C5)C3)C4)C2)cc1 = 0 to 25%
